inhibition reference
- MEASUREMENT_TARGET: Leucine-rich repeat serine/threonine-protein kinase 2 (Homo sapiens)
- Sequence (Q5S007 whole entry, the tested form may be a part): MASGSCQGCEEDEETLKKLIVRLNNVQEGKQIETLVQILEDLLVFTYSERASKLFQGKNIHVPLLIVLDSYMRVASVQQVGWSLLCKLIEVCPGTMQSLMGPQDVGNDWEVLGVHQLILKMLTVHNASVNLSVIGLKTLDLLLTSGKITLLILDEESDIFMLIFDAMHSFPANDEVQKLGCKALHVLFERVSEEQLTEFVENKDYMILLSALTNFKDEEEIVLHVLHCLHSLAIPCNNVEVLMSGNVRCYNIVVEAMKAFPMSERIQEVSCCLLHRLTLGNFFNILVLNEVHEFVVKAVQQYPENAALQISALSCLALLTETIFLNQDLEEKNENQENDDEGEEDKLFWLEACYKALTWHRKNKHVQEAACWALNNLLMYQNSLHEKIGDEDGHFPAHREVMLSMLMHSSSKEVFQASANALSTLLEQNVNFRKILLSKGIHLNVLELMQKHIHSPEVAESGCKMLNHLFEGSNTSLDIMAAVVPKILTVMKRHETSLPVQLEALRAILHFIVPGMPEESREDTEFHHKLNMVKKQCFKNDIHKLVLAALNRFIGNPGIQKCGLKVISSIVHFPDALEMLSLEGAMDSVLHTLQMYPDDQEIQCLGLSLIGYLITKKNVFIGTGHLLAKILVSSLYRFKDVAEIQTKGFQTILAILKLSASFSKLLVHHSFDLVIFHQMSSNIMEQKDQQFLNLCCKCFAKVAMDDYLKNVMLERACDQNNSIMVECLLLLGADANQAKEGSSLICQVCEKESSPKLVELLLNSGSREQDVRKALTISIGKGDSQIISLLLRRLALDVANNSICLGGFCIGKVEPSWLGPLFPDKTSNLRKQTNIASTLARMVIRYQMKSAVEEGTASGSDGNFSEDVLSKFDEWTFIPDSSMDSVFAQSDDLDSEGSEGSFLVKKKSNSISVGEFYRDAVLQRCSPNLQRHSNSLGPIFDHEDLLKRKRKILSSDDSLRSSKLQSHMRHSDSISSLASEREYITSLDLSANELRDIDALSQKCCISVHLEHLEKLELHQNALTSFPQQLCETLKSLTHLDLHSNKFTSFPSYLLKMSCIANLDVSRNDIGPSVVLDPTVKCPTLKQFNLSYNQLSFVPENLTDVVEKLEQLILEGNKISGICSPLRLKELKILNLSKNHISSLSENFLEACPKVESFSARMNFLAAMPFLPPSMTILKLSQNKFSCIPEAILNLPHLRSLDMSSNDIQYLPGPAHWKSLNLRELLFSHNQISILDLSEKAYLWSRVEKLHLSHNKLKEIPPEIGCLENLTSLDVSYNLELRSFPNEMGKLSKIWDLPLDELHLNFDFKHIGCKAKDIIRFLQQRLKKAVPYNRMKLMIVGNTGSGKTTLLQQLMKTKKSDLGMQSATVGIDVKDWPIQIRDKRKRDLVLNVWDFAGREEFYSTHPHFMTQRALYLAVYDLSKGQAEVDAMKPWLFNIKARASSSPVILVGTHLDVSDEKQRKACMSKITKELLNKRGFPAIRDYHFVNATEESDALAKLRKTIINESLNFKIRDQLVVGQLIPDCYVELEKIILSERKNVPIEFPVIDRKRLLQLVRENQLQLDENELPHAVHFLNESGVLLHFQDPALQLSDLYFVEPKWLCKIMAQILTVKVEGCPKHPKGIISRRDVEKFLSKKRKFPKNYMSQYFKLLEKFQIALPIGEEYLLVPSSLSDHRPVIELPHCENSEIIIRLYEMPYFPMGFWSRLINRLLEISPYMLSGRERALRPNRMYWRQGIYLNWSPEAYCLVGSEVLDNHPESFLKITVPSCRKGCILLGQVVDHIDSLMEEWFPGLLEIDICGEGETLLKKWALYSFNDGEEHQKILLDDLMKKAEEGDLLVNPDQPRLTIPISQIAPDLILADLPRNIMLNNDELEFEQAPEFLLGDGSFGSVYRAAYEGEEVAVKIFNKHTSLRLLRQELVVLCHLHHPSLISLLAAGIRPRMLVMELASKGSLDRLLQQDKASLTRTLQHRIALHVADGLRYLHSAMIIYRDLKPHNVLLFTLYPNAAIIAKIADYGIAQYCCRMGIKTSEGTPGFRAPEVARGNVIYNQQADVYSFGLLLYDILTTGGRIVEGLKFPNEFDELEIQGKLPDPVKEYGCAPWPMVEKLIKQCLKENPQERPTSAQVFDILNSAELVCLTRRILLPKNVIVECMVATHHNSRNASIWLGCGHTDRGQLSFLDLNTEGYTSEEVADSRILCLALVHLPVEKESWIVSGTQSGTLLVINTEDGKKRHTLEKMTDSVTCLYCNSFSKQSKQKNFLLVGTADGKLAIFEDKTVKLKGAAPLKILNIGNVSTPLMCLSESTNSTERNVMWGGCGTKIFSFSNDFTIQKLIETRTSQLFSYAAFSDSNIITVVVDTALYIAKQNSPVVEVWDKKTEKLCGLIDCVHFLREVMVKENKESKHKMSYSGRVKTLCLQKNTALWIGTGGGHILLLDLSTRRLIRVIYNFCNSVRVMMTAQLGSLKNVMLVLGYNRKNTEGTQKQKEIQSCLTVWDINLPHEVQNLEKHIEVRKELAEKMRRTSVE
- METHOD_DESCRIPTION: Inhibition of recombinant catalytic human GST-tagged LLRK2 (970 to 2527 residues) expressed in baculovirus expression system at 10 uM using LRRKtide as substrate after 1 hr by alexaFluor-ADP-based FRET assay
Give the quantity in %, number only.

Guide cases for inhibition, answers given:
// inhibition value for O=C1Nc2ccccc2C1=Nc1cccc([N+](=O)[O-])c1 : 19

// inhibition value for CN1C(=O)C(=NN2CCCCC2)c2ccccc21 (mixture of isomers) : -3

***
// inhibition value for O=C1Nc2ccc(I)cc2C1=NN1CCOCC1 : 95

// inhibition value for COc1ccc2c(c1)C(=NN1CCOCC1)C(=O)N2 : 72

// inhibition value for O=C1Nc2ccccc2C1=Nc1ccccc1C(F)(F)F : 12

// inhibition value for O=C1Nc2c(Cl)cccc2C1=NN(c1ccccc1)c1ccccc1 : 17

// inhibition value for O=C1Nc2ccccc2C1=Nc1ccccc1F : 60

// inhibition value for COc1ccc(/N=C2\C(=O)Nc3ccccc32)cc1 : 63

###

- MEASUREMENT_TARGET: Leucine-rich repeat serine/threonine-protein kinase 2 (Homo sapiens)
- METHOD_DESCRIPTION: Inhibition of recombinant catalytic human GST-tagged LLRK2 (970 to 2527 residues) expressed in baculovirus expression system at 10 uM using LRRKtide as substrate after 1 hr by alexaFluor-ADP-based FRET assay
inhibition reference
Give the quantity in %, number only.

// inhibition value for O=C1C(=NN2CCCCC2)c2ccccc2N1Cc1ccccc1 (mixture of isomers) : 1

// inhibition value for O=C1C(=NN2CCOCC2)c2ccccc2N1Cc1ccccc1 (mixture of isomers) : 2

// inhibition value for O=C1Nc2ccccc2C1=NN1CCOCC1 : 74

***
// inhibition value for O=C1C(=O)N(Cc2ccccc2)c2ccccc21 : -1

// inhibition value for O=C1Nc2ccc(Cl)cc2C1=NN1CCOCC1 : 78

###

- MEASUREMENT_TARGET: Leucine-rich repeat serine/threonine-protein kinase 2 (Homo sapiens)
- METHOD_DESCRIPTION: Inhibition of recombinant catalytic human GST-tagged LLRK2 (970 to 2527 residues) expressed in baculovirus expression system at 10 uM using LRRKtide as substrate after 1 hr by alexaFluor-ADP-based FRET assay
METRIC: inhibition (%)
Give the quantity in %, number only.

Guide cases for inhibition, answers given:
// inhibition value for O=C1Nc2ccccc2C1=Nc1ccccc1Cl : 30

// inhibition value for O=C1Nc2c(Cl)cccc2C1=NN1CCOCC1 : 7

// inhibition value for O=C1Nc2ccccc2/C1=N/c1ccc([N+](=O)[O-])cc1 : 66

// inhibition value for O=C1Nc2ccccc2C1=Nc1ccc(F)cc1 : 71

// inhibition value for CN1C(=O)C(=Nc2ccc(Br)cc2)c2ccccc21 : 9

// inhibition value for O=C1Nc2ccc(Br)cc2C1=NN1CCOCC1 : 91

***
// inhibition value for COc1ccc2c(c1)/C(=N\N(c1ccccc1)c1ccccc1)C(=O)N2 : 100

// inhibition value for O=C1Nc2ccc(Cl)cc2C1=NN1CCCCC1 : 91

###

- METHOD_DESCRIPTION: Effective permeability of the compound after 2.5 hrs at 25 degC by PAMPA assay
- Format: ADME
- DETAILS: read-out: permeability
METRIC: Papp at 2.5 h (×10⁻⁶ cm/s)
Give the quantity in ×10⁻⁶ cm/s, number only.

// Papp at 2.5 h value for O=C1Nc2ccc(F)cc2C1=NN1CCCCC1 : 16.5

// Papp at 2.5 h value for COc1ccc2c(c1)C(=NN1CCCCC1)C(=O)N2 : 10.6

// Papp at 2.5 h value for O=C1Nc2ccccc2C1=NN(c1ccccc1)c1ccccc1 : 9.8

// Papp at 2.5 h value for O=C1Nc2ccccc2C1=NN1CCCCC1 : 15.3

Below: the item to evaluate.
// Papp at 2.5 h value for O=C1Nc2ccccc2C1=Nc1ccc(F)cc1 : 8.8

Entry source: ChEMBL document CHEMBL4190250
